Reference for the values: paper PMC6172212

Target: CAMKK1 kinase domain (CAMKK1-KD, Gln124-Lys411) (Homo sapiens)
Construct: The kinase domain (Gln124 to Lys411) was amplified using the primers; 6xHis (TEV-cleavable) (N, cleaved yes); made in house; host or cells: Escherichia coli BL21(DE3)-R3 co-expressing λ-phosphatase
Sequence (Q8N5S9 124-411): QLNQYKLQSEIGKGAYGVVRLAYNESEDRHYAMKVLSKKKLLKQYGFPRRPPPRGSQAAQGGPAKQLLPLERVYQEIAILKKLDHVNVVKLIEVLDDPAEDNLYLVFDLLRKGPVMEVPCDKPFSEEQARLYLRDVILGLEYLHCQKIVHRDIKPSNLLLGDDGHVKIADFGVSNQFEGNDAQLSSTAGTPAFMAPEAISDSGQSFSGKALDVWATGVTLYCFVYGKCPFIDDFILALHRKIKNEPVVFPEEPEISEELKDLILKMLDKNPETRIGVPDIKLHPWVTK
Assay: Differential scanning fluorimetry (DSF) screen of a kinase inhibitor library against CAMKK1-KD
Format: binding
Conditions: DSF, 1 μM CAMKK1-KD, compound 10 µM; supplement
quantity: Mean ΔTm (°C)
Numbers only, in °C.

Please state Mean ΔTm (°C) for every compound in the list that follows.
1. COc1ccc2c(Oc3ccc(NC(=O)c4c(C)n(CC(C)(C)O)n(-c5ccccc5)c4=O)nc3)ccnc2c1
2. O=C(Nc1cccc(Nc2ncc(Br)c(NCCc3cnc[nH]3)n2)c1)N1CCCC1
3. O=C1Nc2ccc(I)cc2/C1=C/c1cc(Br)c(O)c(Br)c1
4. CC(C)CCN1c2nc(Nc3cc(F)c(O)c(F)c3)ncc2N(C)C(=O)C1C (centres unmarked)
5. COc1cc2nccc(Oc3ccc(NC(=O)Nc4ccc(F)cc4F)c(F)c3)c2cc1OC

5.2
4.3
5.4
3.6
2.1

Please state Mean ΔTm (°C) for every compound in the list that follows.
1. O=C1NC(=O)/C(=C/c2ccc(-c3ccc(F)cc3O)o2)S1
2. CN1CCC(CNc2ccc3ncc(-c4cccc(OC(F)(F)F)c4)n3n2)CC1 [SGI-1776 free base]
3. CS(=O)(=O)c1cccc(CNc2nc(Nc3ccc4c(c3)CCC(=O)N4)ncc2C(F)(F)F)c1

[4.8, 3.4, 5.8]
